// provenance: patent US4657911A

Each entry below carries its reported LD50.
Assay: acute toxicity in mice, method of MILLER and TAINTER
Details: mouse, in vivo, ip, Table II
Give the value in mg/kg but do not write mg/kg after it.

Using the record for O=C(NC1CN2CCC1CC2)c1cccc(F)c1 (stereo not drawn) , report its LD50. 140

Using the record for COc1cccc(C(=O)NC2CN3CCC2CC3)c1 (stereo not drawn) , report its LD50. 110

Using the record for COc1cc(N)c(Cl)cc1C(=O)NC1CN2CCC1CC2 (stereo not drawn) , report its LD50. 105

====

Test: acute toxicity in mice, method of MILLER and TAINTER
Settings: mouse, in vivo, ip, Table III
Binary label based on LD50 with cut-off 200 mg/kg: below gives class 1, not below gives class 0.

| COMPOUND | QUALITATIVE LABEL |
| --- | --- |
| COc1ccccc1C(=O)NC1CN2CCC1CC2 (stereo not shown) | class 1 |
| O=C(NC1CN2CCC1CC2)c1cccc(Cl)c1 (stereo not shown) | class 1 |
| COc1ccc(F)cc1C(=O)NC1CN2CCC1CC2 (stereo not shown) | class 1 |
| COc1cc(NC(C)=O)c(Cl)cc1C(=O)N(C)C1CN2CCC1CC2 (stereo not shown) | class 1 |
| O=C(NC1CN2CCC1CC2)c1ccccc1F (stereo not shown) | class 1 |

Regarding COc1ccc(Br)cc1C(=O)NC1CN2CCC1CC2 (stereo not shown) , kindly confirm whether its LD50 is beneath 200 mg/kg. class 1
